- Protocol notes: TIMS collision cross section in N2 (TIMS CCS N2); higher = larger gas-phase ion size
- Recorded conditions: ion species: [M-H+Na+HCO2H]-; drift gas: N2 (99.4% N2, 0.6% O2); calibration: Stow et al. 2017 values for Agilent ESI-L Low Concentration Tune Mix; ionization: negative ESI
± gives the uncertainty stated by the source.
In this section, each of the compounds is paired with its reported TIMS collision cross section in N2.
Don't forget the unit after the number, please.

Worked cases, answers included:
[[record]]
chemical_structure = "Cc1c(O)c(C)c2c(c1O)C(=O)C[C@@H](c1ccc(O)cc1)O2"
measured_result = "186.6 ± 0.36 Å²"

[[record]]
chemical_structure = "CC1(C)CC[C@]2(C(=O)O)CC[C@]3(C)C(=CC[C@@H]4[C@@]5(C)C[C@H](O)[C@H](O)[C@@](C)(C(=O)O)[C@@H]5CC[C@]43C)[C@@H]2C1"
measured_result = "243.47 ± 0.081 Å²"


Now consider the entry below.
Tell me the measured TIMS collision cross section in N2 of C[C@@H]1O[C@@H](Oc2c(-c3ccc(O)c(O)c3)oc3cc(O)cc(O)c3c2=O)[C@H](O)[C@H](O)[C@H]1O , please.
205.52 ± 0.42 Å²
